- System: HOP-92
- Assay remarks: NCI tumour cell line growth inhibition, 48 h
The source made the active and inactive calls. No stated cut-off is given here; in the data, active = GI50 up to about 1.1 µM and inactive = higher.
Labels: active, inactive

- Compound: "O=C(O)c1ccc(CI)cc1"
  System under test: "HOP-92"
  Class name: "inactive"
- Compound: "C(/C=N/N=C1NCCCCN1)=N\\N=C1NCCCCN1"
  System under test: "HOP-92"
  Class name: "inactive"
- Compound: "O=C(CCN1CCCCC1CO)Nc1ccc2c(c1)C(=O)c1ccc(NC(=O)CCN3CCCCC3CO)cc1C2=O (stereo unspecified)"
  System under test: "HOP-92"
  Class name: "inactive"
- Compound: "COC(=O)C(=O)C(CC(=O)Nc1cccc(C(F)(F)F)c1)C(=O)OC (stereo unspecified)"
  System under test: "HOP-92"
  Class name: "inactive"
- Compound: "CC/C(Cl)=N\\OC(=O)Nc1ccc(F)c(Cl)c1"
  System under test: "HOP-92"
  Class name: "inactive"
- Compound: "C[N+](C)(C)C1(C(=O)[O-])CC1"
  System under test: "HOP-92"
  Class name: "inactive"
- Compound: "O=C(Cc1nc2ccccc2o1)C(=O)Nc1ccccc1C(F)(F)F"
  System under test: "HOP-92"
  Class name: "inactive"
- Compound: "O=C(C=P(c1ccccc1)(c1ccccc1)c1ccccc1)C12CC3CC(CC(C3)C1)C2"
  System under test: "HOP-92"
  Class name: "inactive"
- Compound: "COc1ccccc1/C=C/c1c(N)ncnc1Nc1cccc(Cl)c1"
  System under test: "HOP-92"
  Class name: "active"
- Compound: "CC(C)C(=O)OCC1CCCN2CCCCC12 (stereo unspecified)"
  System under test: "HOP-92"
  Class name: "inactive"
- Compound: "COc1ccc(/C=C2\\C[C@H]3[C@@H]4CC=C5C[C@@H](OC(C)=O)CC[C@]5(C)[C@H]4CC[C@]3(C)\\C2=N\\O)cc1OC"
  System under test: "HOP-92"
  Class name: "inactive"

====

# GI50 values compiled below
- Test system: A549
- Assay remarks: NCI tumour cell line growth inhibition, 48 h
Active and inactive are the calls of the source. Cut-off read from the data, not from the text of the source: active = GI50 up to about 1.1 µM and inactive = higher.
Experimental endpoint: GI50

- Molecule: "NC1CC(=O)c2ccccc21 (stereo not given)"
  Experimental endpoint: "GI50"
  Measured value: "> 100 µM (inactive)"
- Molecule: "O=C1COc2cc3c(cc2N1)SCCC(=O)N3"
  Experimental endpoint: "GI50"
  Measured value: "> 100 µM (inactive)"
- Molecule: "COc1cc2cc(C(=O)N3CC(CCl)c4ccc([N+](C)(C)Cc5ccc([N+](=O)[O-])cc5)cc43)[nH]c2c(OC)c1OC (stereo not given)"
  Experimental endpoint: "GI50"
  Measured value: "1.8 µM (inactive)"
- Molecule: "C#CC(=O)OCC#CCOC(=O)C#C"
  Experimental endpoint: "GI50"
  Measured value: "27.9 µM (inactive)"
- Molecule: "CCN(CC)CCCNc1c2cc(OC)ccc2nc2cccc([N+](=O)[O-])c12"
  Experimental endpoint: "GI50"
  Measured value: "0.065 µM (active)"
- Molecule: "COC(=O)C(=O)C(CC(=O)Nc1cccc(C(F)(F)F)c1)C(=O)OC (stereo not given)"
  Experimental endpoint: "GI50"
  Measured value: "> 100 µM (inactive)"
- Molecule: "CC(CC(C)(C)[N+](C)(C)C)[N+](C)(C)C (stereo not given)"
  Experimental endpoint: "GI50"
  Measured value: "> 100 µM (inactive)"
- Molecule: "CO/C(=N\\N=C\\c1ccc(Cl)cc1Cl)c1ccncc1"
  Experimental endpoint: "GI50"
  Measured value: "> 10 µM (inactive)"
- Molecule: "CCOC(=O)C(NC(=O)c1cccc(Cl)c1)(Nc1ccc(S(=O)(=O)Nc2cc(C)nc(C)n2)cc1)C(F)(F)F (stereo not given)"
  Experimental endpoint: "GI50"
  Measured value: "> 100 µM (inactive)"
- Molecule: "COC(=O)[C@@H](O)[C@]1(C(=O)OC)C2O[C@@H](OC)[C@@H]1CCCCCC[C@H]2O"
  Experimental endpoint: "GI50"
  Measured value: "> 100 µM (inactive)"
